This listing pairs binders with measured EC50.
Biological target: T1, Human recombinant CD5L protein (Sino Biological, Catalog Number 10791-H08H) (human, UniProt O43866 20-347)
T1 construct: Bought protein; also called human CD5L; CD5L-His; not shown: 6xHIS-tag
T1 sequence (looked up): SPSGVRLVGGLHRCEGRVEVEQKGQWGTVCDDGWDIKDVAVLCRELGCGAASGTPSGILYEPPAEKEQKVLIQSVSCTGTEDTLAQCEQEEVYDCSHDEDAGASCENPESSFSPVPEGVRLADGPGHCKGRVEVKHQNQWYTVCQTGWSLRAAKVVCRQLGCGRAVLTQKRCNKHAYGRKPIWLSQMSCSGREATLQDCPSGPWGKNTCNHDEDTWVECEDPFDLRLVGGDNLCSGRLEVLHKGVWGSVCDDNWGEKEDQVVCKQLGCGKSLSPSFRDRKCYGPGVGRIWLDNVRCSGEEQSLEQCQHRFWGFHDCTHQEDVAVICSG
Test: titration ELISA, human CD5L coated on plate
Write the number in µg/mL without appending the unit.

Below: 2 binders and their reported EC50.
{"binder": "R-21 (antibody, V domains shown) VH: QSVEESGGRLVTPGTPLTLTCTVSGIDLSSYAINWVRQAPGEGLEWIGMISSSDNTYYANWAKGRFTISRDSTTVDLKITSPTTEDTATYFCARFYAGRSYSLWGQGTLVTISS VL: ELDLTQTPASVSAAVGGTVTISCQSSESVYKSNYLSWYQQKAGQPPKLLIYAAATLASGVPSRFKGSGSGTQFTLTISGVQCDDAATYYCQGTYYSSGWYNAFGGGTEVVVK", "units of measure": "µg/mL", "quantitative readout": 0.21}
{"binder": "R-35 (antibody, V domains shown, also called anti-CD5L antibody R-35; CD5L antibody (R-35)) VH: AAVKESGGRLVTPGTPLTLTCTVSGIDLSDYYMTWVRQAPGKGLEYIGIIYASGNAYFASWAKGRFTISRTSSTTVDLNVASPTTEDTATYFCARNIGGSSNLWGQGTLVTVSS VL: ELDMTQTPASVSEPVGGTVTIKCQASERIYNNLAWYQQKPGQPPKLLFYSASTLASGVPSRFKGSGSGTEFTLTISDLECADAAIYYCQCTGYGTTYGLVFGGGTEVEI", "units of measure": "µg/mL", "quantitative readout": 0.169}

# evaluate next
stdin: Provide measured EC50 value, entry: R-3 (antibody, V domains shown) VH: QSLKESGGRLVKPDETLTITCTASGIDLTSGTVGWFRQAPGKGLEWIGIIRGSGSTYYATWAKGRFTISKTSTTVDLKLTSPTTEDTATYLCARAFPGYNTFFNFWGQGTLVTISS VL: ELDLTQTPSSVEAAVGGTVTIKCQASESIGNALAWYQQKPGQPPKLLIWKASNLESGVPPRFKGSGSGTEFTLTISDLECADAATYYCQRYYFNGVSVEIVFGGGTEVVVKG
stdout: 0.183
